# system: furin, P09958;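 also: purified furin at 1:10 enzyme:substrate in 50 mM HEPES pH 7.5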
# Sequence (P09958 whole entry): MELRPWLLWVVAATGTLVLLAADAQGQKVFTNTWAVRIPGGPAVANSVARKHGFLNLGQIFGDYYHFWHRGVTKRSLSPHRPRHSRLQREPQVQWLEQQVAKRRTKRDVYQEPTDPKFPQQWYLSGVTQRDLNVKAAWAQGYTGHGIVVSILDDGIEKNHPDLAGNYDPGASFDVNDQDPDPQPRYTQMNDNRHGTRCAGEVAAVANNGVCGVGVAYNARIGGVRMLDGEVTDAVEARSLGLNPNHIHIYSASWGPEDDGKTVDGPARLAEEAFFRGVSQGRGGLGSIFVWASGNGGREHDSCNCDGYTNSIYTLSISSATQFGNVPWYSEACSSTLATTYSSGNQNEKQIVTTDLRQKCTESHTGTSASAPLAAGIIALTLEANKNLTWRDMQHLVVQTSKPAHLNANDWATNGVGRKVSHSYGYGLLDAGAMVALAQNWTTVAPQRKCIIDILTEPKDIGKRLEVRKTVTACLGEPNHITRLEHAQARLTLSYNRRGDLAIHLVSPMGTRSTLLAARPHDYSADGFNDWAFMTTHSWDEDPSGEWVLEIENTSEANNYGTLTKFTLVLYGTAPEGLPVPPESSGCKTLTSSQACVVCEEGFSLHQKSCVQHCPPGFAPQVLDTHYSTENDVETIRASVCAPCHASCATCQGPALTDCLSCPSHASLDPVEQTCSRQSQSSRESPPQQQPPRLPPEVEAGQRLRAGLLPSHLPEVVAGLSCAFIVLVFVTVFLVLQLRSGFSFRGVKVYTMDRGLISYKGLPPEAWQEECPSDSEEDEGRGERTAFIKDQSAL
# test-description: furin cleavage Z-score vs untreated control; higher = more cleavage, active = 3.5 or more, inactive = 1 or less, 8 variable residues between constant flanks
# study-conditions: 7.5 min
The list shows a part of the results. The true hit rate is not given.
measured-property: furin cleavage Z-score
Number only, no unit.

# furin cleavage Z-score (sequence: CALEVLFQGPAGNASASA [NG9] ) is -2.01

# furin cleavage Z-score (sequence: CALYNRTRRIAGNASASA [FS-61] ) is -0.475

# furin cleavage Z-score (sequence: CAMEECSCHLAGNASASA [HC1740] ) is 0.898

# furin cleavage Z-score (sequence: CAFCHSKKKCAGNASASA [HC857] ) is -1.27

# furin cleavage Z-score (sequence: CASEPCSAHLAGNASASA [HC2492] ) is -0.366

# furin cleavage Z-score (sequence: CADDDKIVGGAGNASASA [EK7] ) is -1.75
